B1: E3 ubiquitin-protein ligase Midline-1, residues 172 to 214; numbered along this chain, O15344 (parent)
chain: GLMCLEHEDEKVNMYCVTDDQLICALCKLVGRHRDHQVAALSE

# Variants of: B1
# METHOD: abundance fitness (aPCA) (normalised: wild type 0, dead -1); higher = more abundant; growth selection in yeast, the domain comes from the species named
# EXPERIMENTAL_CONDITIONS: Homo sapiens

# MUTATION_STRING, abundance fitness
measured = [
    ("E43W", -0.175),
    ("E43R", -0.031),
    ("A39V", 0.027),
    ("L2D", 0.674),
    ("A25V", -0.303),
    ("L2T", 0.51),
    ("D35V", -0.28),
    ("M3T", -0.166),
    ("H7Y", -0.637),
    ("I23A", 0.022),
    ("N13E", -0.084),
    ("T18V", -0.077),
    ("G1R", -0.081),
    ("V17N", 0.545),
    ("A39I", -0.08),
    ("L41V", -0.053),
    ("C16G", -0.291),
    ("V30K", 0.235),
    ("E43Q", -0.317),
    ("Q37G", -0.146),
    ("Q37I", -0.508),
    ("K11W", -0.288),
    ("L22Q", 0.29),
    ("L5E", 0.074),
    ("H36Q", -0.284),
    ("R32M", -0.219),
    ("D20S", -0.038),
    ("E43V", -0.534),
    ("T18Q", -0.073),
    ("H33T", -0.538),
    ("D9R", 0.027),
    ("V30N", 0.147),
    ("V30F", -0.381),
    ("E10R", -0.046),
    ("S42R", -0.127),
    ("L41A", 0.072),
    ("Y15N", -0.165),
    ("Q21A", 0.003),
    ("Y15T", -0.288),
    ("A39K", 0.059),
    ("D20P", -0.573),
    ("Q37Y", -0.169),
    ("Q37N", -0.184),
    ("M14P", -0.405),
    ("L5G", -0.092),
    ("I23M", 0.011),
]
